Listed below: growth values for each entry.
Tested on: HCT-15 colon
experiment.notes: NCI-60 one-dose screen, 48 h (100 = growth as untreated, 0 = no growth, -100 = all killed)
assay.context: 10 µM
Procedure: Growth inhibition of the HCT-15 human tumor cell line is measured as a screen for anti-cancer activity. Cells are grown in 96 well plates and exposed to the test compound for 48 hours. Compounds are tested at a single concentration, which is 10^-5 M for most compounds. The reported endpoint is percent growth (GI% or GIPRCNT), where numbers from 0 - 100% represent growth inhibition, and numbers from -100% - 0 represent cell death. For example, a value of 40 represents 60% growth inhibition. […]
About 83,000 compounds went through this panel and 20% of them were active in at least one assay; those are over-represented in the sample as a whole.
# unit: % | format: bare number

State the measured growth (HCT-15 colon) of O=C1Nc2ccc(F)cc2/C1=C/c1cccc(OCc2ccccn2)c1 10.5

State the measured growth (HCT-15 colon) of Cc1ccc(CSc2nc(-c3ccc(F)cc3)c(C#N)c(=O)[nH]2)cc1 84.2

State the measured growth (HCT-15 colon) of COc1cc(/C=C/C(=O)c2ccc(NC(=O)CN3C(=O)NC(C)(c4ccccc4)C3=O)cc2)cc(OC)c1OC (centres undefined) 11.8

State the measured growth (HCT-15 colon) of O=C(Nc1cccc(-c2cn(-c3ccc4oc(=O)ccc4c3)nn2)c1)Nc1cc(C(F)(F)F)cc(C(F)(F)F)c1 19

State the measured growth (HCT-15 colon) of COc1ccc2c3nc4cc(C)c(C)cc4nc3n(CCN(C)C)c2c1 1.95

State the measured growth (HCT-15 colon) of CCOC(=O)C1=C(N)N(c2ccccc2)C2=C(C(=O)CC(C)(C)C2)C1c1ccc(Cl)cc1 (centres undefined) 14.5

State the measured growth (HCT-15 colon) of O=C(/C=C/Nc1ccc(F)cc1F)c1ccc2c(c1)Nc1ccccc1S2 33.1

State the measured growth (HCT-15 colon) of CN(C(=O)c1ccc(C(C)(C)C)cc1)c1sc2c(c1C#N)CCC(=O)C2 -68.6

Moving on to the next compound.
State the measured growth (HCT-15 colon) of C/C(=N\N=C\c1ccc(N(C)C)cc1)c1ccc2c(c1)Nc1ccccc1S2 22

* * *

Listed below: growth values for each entry.
Test system: NCI/ADR-RES ovarian
experiment.notes: NCI-60 one-dose screen, 48 h (100 = growth as untreated, 0 = no growth, -100 = all killed)
assay.context: 10 µM
The panel holds about 83,000 compounds, 20% with a hit somewhere; the sample as a whole holds those more often.
# unit: % | format: bare number

Here is how some compounds turned out for growth.
State the measured growth (NCI/ADR-RES ovarian) of CCOc1ccc(/C=N/NC(=O)Cn2nc(Cc3ccccc3)c3onc(C)c3c2=O)cc1 16.1

State the measured growth (NCI/ADR-RES ovarian) of COc1ccccc1[C@H]1C(C(=O)c2ccc(Cl)cc2)C2(N[C@@H]1c1ccccc1)C(=O)Nc1ccc(Cl)cc12 (some centres undefined) -65.5

State the measured growth (NCI/ADR-RES ovarian) of O=C(/C=C/Nc1ccc(F)cc1F)c1ccc2c(c1)Nc1ccccc1S2 57.1

Further cases:
State the measured growth (NCI/ADR-RES ovarian) of CCN1CCN(c2ccc(NC(=O)Nc3ccc4c(c3F)CCN4c3ccnc(C(=O)NC)c3)cc2C(F)(F)F)CC1 -67.6

State the measured growth (NCI/ADR-RES ovarian) of CCCS(=O)(=O)c1oc(-c2ccc(F)cc2)nc1S(=O)(=O)c1ccc(F)cc1 -52.2

State the measured growth (NCI/ADR-RES ovarian) of Cc1ccc(C(C)C)cc1NC(=O)c1ccccc1O 29.1

State the measured growth (NCI/ADR-RES ovarian) of C#CCNC(=O)[C@]12CCC(C)(C)C[C@H]1C1=CC[C@@H]3[C@@](C)(CCC#N)[C@H](C(=C)C)CC[C@@]3(C)[C@]1(C)CC2 62.5

State the measured growth (NCI/ADR-RES ovarian) of CN(C)c1ccc(/C=C/C(=O)c2ccc(NC(=O)CN3C(=O)NC(C)(c4ccccc4)C3=O)cc2)cc1 (centres undefined) 86.6

State the measured growth (NCI/ADR-RES ovarian) of CC(=O)c1ccc(Nc2nc(SC(C)C)nc(-c3ccccc3)c2C#N)cc1 1.21
